- Assay Details: well-based DEL assay (MTS colorimetric, 96/384-well): genotoxicity and cytotoxicity
- Setup Conditions: Saccharomyces cerevisiae
Quantity Kind: viability at 0.25 mg/ml (%)
Numbers only, in %.

Lab note: c1ccccc1 gave viability at 0.25 mg/ml of 96

====

- Assay Details: well-based DEL assay (MTS colorimetric, 96/384-well): genotoxicity and cytotoxicity
- Setup Conditions: Saccharomyces cerevisiae
Quantity Kind: viability at 10 μM (%)
Give bare numbers, in %.

Lab note: O=C(O)CCCc1ccc(N(CCCl)CCCl)cc1 [Chlorambucil, chlorambucil] gave viability at 10 μM of 35.7

====

- Assay Details: in vitro
- Setup Conditions: Saccharomyces cerevisiae, Cytotoxicity (% survival), 30 μM final in well
Quantity Kind: viability
Give your result as the value with the unit written after it.

Lab note: O=NN(CCCl)C(=O)NCCCl [Carmustine, carmustine] gave viability of 29.5%

====

- Assay Details: well-based DEL assay (MTS colorimetric, 96/384-well): genotoxicity and cytotoxicity
- Setup Conditions: Saccharomyces cerevisiae, S. cerevisiae strain RS112 (diploid yeast cells)
Quantity Kind: viability at 5 μg/ml (%)
One number for each entry, in %.

Lab note: CCOS(C)(=O)=O [EMS, ethyl methanesulfonate] gave viability at 5 μg/ml of 8.36

====

- Assay Details: in vitro
- Setup Conditions: Saccharomyces cerevisiae, Cytotoxicity (% survival), 50 μM final in well
Quantity Kind: viability (%)
Answers are plain numbers, in %.

Lab note: O=NN(CCCl)C(=O)NCCCl gave viability of 10.7

====

- Assay Details: well-based DEL assay (MTS colorimetric, 96/384-well): genotoxicity and cytotoxicity
- Setup Conditions: Saccharomyces cerevisiae, S. cerevisiae strain RS112 (diploid yeast cells)
Quantity Kind: viability at 25 μM (%)
Give bare numbers, in %.

Lab note: CC[C@@]1(O)C(=O)OCc2c1cc1n(c2=O)Cc2cc3ccccc3nc2-1 [Camptothecin, camptothecin] gave viability at 25 μM of 95.7

====

- Assay Details: well-based DEL assay (MTS colorimetric, 96/384-well): genotoxicity and cytotoxicity
- Setup Conditions: Saccharomyces cerevisiae
Quantity Kind: viability at 1 μM
Give your result as the value with the unit written after it.

Lab note: O=C(O)CCCc1ccc(N(CCCl)CCCl)cc1 gave viability at 1 μM of 82.4%

====

- Assay Details: well-based DEL assay (MTS colorimetric, 96/384-well): genotoxicity and cytotoxicity
- Setup Conditions: Saccharomyces cerevisiae, S. cerevisiae strain RS112 (diploid yeast cells)
- Procedure: The RS112 yeast DEL assay tester strain of Saccharomyces cerevisiae contains a plasmid with an internal fragment of the HIS3 gene integrated at the genomic HIS3 locus, yielding an integrative disruption of the HIS3 gene. This disruption results in two copies of the HIS3 gene, each copy having one terminal deletion. […] Yeast are then plated onto SC medium to determine the number of survivors (individual colonies are counted) and onto SC-HIS medium to score for DEL events. […]
Quantity Kind: viability at 5 μM

Lab note: CC[C@@]1(O)C(=O)OCc2c1cc1n(c2=O)Cc2cc3ccccc3nc2-1 gave viability at 5 μM of 86.1%

====

- Assay Details: well-based DEL assay (MTS colorimetric, 96/384-well): genotoxicity and cytotoxicity
- Setup Conditions: Saccharomyces cerevisiae, S. cerevisiae strain RS112 (diploid yeast cells)
Quantity Kind: viability at 500 nM (%)
One number for each entry, in %.

Lab note: COS(C)(=O)=O [MMS, methylmethane sulfonate] gave viability at 500 nM of 38.6

Data credit: patent US9193983B2
